Target: T1, Oct6 DNA-binding domain (BD-Oct6) (Mus musculus (B6), UniProt P21952 317-416)
T1 sequence: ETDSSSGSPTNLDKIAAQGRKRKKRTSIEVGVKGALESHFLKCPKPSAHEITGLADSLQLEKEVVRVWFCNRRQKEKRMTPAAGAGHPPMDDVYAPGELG
Test: EMSA; 10% glycerol, 20 mM HEPES pH 7.8, 45 mM KCl, 10 mM NaCl, 1 mM EDTA, 1 mM DTT, 0.2 ug/uL BSA, 0.1% NP-40, 50 ng poly-dIdC; 20 ng each GST protein; room temperature 30 min (heterodimers 4 C); 6% PAGE 0.25x TBE
Conditions: protein: recombinant; tags: GST (N-terminal, pGEX-6P-1); label: 32P-dCTP fill-in of the 5' (dG)5 overhangs of both strands (Methods; control probes are given with GGG)

{"binder": "41 (dsDNA) DNA 1: GGGGGTTTGGAAAACAAAACATTAACCAAAATTTTCCCCC DNA 2: GGGGGAAAATTTTGGTTAATGTTTTGTTTTCCAAACCCCC", "binding result": "binds"}
{"binder": "4a (dsDNA) DNA 1: GGGGGGACTTAATTGTGAGTCTCTGTAAAATTAACAAACAAGTTACCCCCC DNA 2: GGGGGGTAACTTGTTTGTTAATTTTACAGAGACTCACAATTAAGTCCCCCC", "binding result": "binds"}
{"binder": "106 (dsDNA) DNA 1: GGGGGGCTTCCCTAGAATTGGAGATACAAAGGGCTCTGCCCCC DNA 2: GGGGGCAGAGCCCTTTGTATCTCCAATTCTAGGGAAGCCCCCC", "binding result": "no binding"}
{"binder": "84 (dsDNA) DNA 1: GGGGGTATGAATCACAATGTAAATATCTGTGTTTACCCCC DNA 2: GGGGGTAAACACAGATATTTACATTGTGATTCATACCCCC", "binding result": "no binding"}
{"binder": "1 (dsDNA) DNA 1: GGGGGAAAATAACCAAAATAAAAAGTGTACAATTCAGTGGCCCCCC DNA 2: GGGGGGCCACTGAATTGTACACTTTTTATTTTGGTTATTTTCCCCC", "binding result": "no binding"}
